# Lookup of reported TGI keyed by entry
Tested on: HOP-18 NSCLC
Method: NCI tumour cell line growth inhibition, 48 h

Example results:
| Compound | Measured on | TGI |
| --- | --- | --- |
| CCOC(=O)C1SC(=Nc2ccccc2)N=C1C (configuration not stated) | HOP-18 NSCLC | > 100 µM |
| O=P1(c2ccccc2)Nc2ccccc2SSc2ccccc2N1 | HOP-18 NSCLC | 36.6 µM |
| C[Si](C)(C)/C(Br)=C\CCN1C(=O)CCC1=O | HOP-18 NSCLC | > 100 µM |
| Nc1ccn(C2OC(C(O)CO)C(O)C2O)c(=O)n1 (configuration not stated) | HOP-18 NSCLC | > 100 µM |
| N=C1C(=N)c2ccccc2-c2ccccc21.N=C1C(=N)c2ccccc2-c2ccccc21.N=C1C(=N)c2ccccc2-c2ccccc21.[Cl-].[Ru+2] | HOP-18 NSCLC | 7.76 µM |
| CC(C)(C)[Si](C)(C)OC1C(=O)C[C@H]2CCCC[C@@H]12 (some centres not stated) | HOP-18 NSCLC | > 100 µM |

Shift focus to the following entry.
State its TGI on HOP-18 NSCLC: COc1cc2c3c(c1OC)-c1cc4c(cc1CC3(C#N)N(C(=O)c1ccccc1)CC2)OCO4 (configuration not stated)
93.2 µM

* * *

System: HOP-62 NSCLC
Method: NCI tumour cell line growth inhibition, 48 h
Where a SMILES comes first, the peptide text is derived from it. The star is where a group is joined. Cbz = O=C(OCc1ccccc1)*
Observable: TGI

Below, each entry is followed by its recorded TGI result.
| Molecule | Experimental result |
| --- | --- |
| CSc1ccccc1C#C/C=C\C#Cc1ccccc1N | 26.3 µM |
| O=[P@@]1(c2ccccc2)O[C@H](COCc2ccccc2)[C@@H](OCc2ccccc2)[C@H](OCc2ccccc2)[C@H]1NCc1ccccc1 | > 100 µM |
| Cn1c2ccccc2c(=O)c2cccc(C(=O)NC(CS)C(=O)O)c21 (stereo not given) | > 100 µM |
| CC1CCN(C(=O)OCc2nc3nc(Cl)nc(N4CCOCC4)c3[nH]2)CC1 | 5 µM |
| Cc1nc2ccc(F)cc2c2c1CCN2c1ccc(Cl)cc1 | 56.4 µM |

// returns reported TGI for input N#Cc1c(-c2ccc(Cl)cc2)c(C#N)c(=O)n(NS(=O)(=O)c2ccccc2)c1O
> 100 µM

Value lookup for TGI; key = CC(C)(C)[Si](C)(C)Oc1ccc(C2CNC(=O)C23CCC(=O)N3Cc2ccccc2)cc1 (stereo not given)
53.3 µM

I am curious: what TGI value has been reported for CC(NC(=O)C(NC(=O)OCc1ccccc1)C(C)C)C(=O)NCC(=O)O (stereo not drawn) (Cbz-Val-Ala-Gly-OH; configuration not given here) ?
> 100 µM

* * *

Reported TGI values for the following compounds.
Test system: A498 renal
Method: NCI tumour cell line growth inhibition, 48 h

Consider the following illustrative entries.
| Compound | Measured on | Observable | Experimental result |
| --- | --- | --- | --- |
| Cc1ccc2c(C3C(C#N)=C(N)Oc4cc5ccccc5cc43)cc(=O)oc2c1 (stereo not given) | A498 renal | TGI | 86.3 µM |
| O=[N+]([O-])c1ccc(CI)cc1 | A498 renal | TGI | 9.56 µM |
| CC(C)=CC1CC(=[N+]=[N-])C(=O)C1(C)C (stereo not given) | A498 renal | TGI | > 100 µM |
| CCOC(=O)c1c(-c2ccc(OC)cc2)c(C#N)c2c(C#N)c(N)nn2c1N | A498 renal | TGI | 7.88 µM |

// query TGI value for entry C[C@@]12CCC[C@@](C)(C(=O)O)C1CC[C@]13CC(=O)[C@](CO)(C1)[C@@H](O)CC32 (stereo not given in full)
> 100 µM

* * *

Test system: CCRF-CEM leukemia
Method: NCI tumour cell line growth inhibition, 48 h
Measured GI50 by item

Previously resolved entries follow.
| Compound | GI50 |
| --- | --- |
| O=C1CCC/C=C\C[C@H]2C=CC(=O)/C2=C/C[C@H](C/C=C\CC(F)(F)F)O1 | 0.465 µM |
| CN(C)CCC(=O)C(=Cc1ccc(O)cc1)C(=O)CCN(C)C | 43.4 µM |
| O=C(Nc1cc(C(F)(F)F)ccc1Cl)c1cccc(NC2=C(Cl)C(=O)N(Cc3ccccc3)C2=O)c1 | 2.71 µM |

Would you kindly share the measured GI50 for COc1ccc(C2=C(c3ccc(OC)cc3)C(=O)N3CCCC3C2)cc1 (stereo unspecified) ?
5.49 µM

Give the measured GI50 of CCc1ccc(/C=C/c2ccc(O)c3ncccc23)[n+](C)c1 .
4.95 µM

Reported GI50, compound O=[N+]([O-])c1ccc(CI)cc1 : ____
0.518 µM

Tell me the measured GI50 of Cn1c(=O)c(Oc2ccc(F)cc2)cc2cnc(NC3CCOCC3)nc21 , please.
> 25 µM

GI50 lookup needed for CSc1ccccc1C#C/C=C\C#Cc1ccccc1N , thanks.
4.98 µM

// GI50 lookup, key: COc1ccc(-c2cc(/C=C/C(=O)c3ccc(OC)c(OC)c3)[nH]n2)cc1
1.34 µM

Entry CCN(Cc1ccc(F)cc1)c1ccc(CO)c(Br)c1 has what GI50?
14.6 µM

Returns the measured GI50 for the input compound. Input: O=S(=O)(Nc1ccc(Cl)cc1Cl)c1ccc(-c2cnc(C3CC3)o2)cc1
0.509 µM

* * *

TGI values for the compounds below.
Tested on: MOLT-4 leukemia
Method: NCI tumour cell line growth inhibition, 48 h
Quick reminder: number only, in µM, skip the unit.

| Compound | Experimental result |
| --- | --- |
| COc1ccc(-c2nnc(N3CCN(C(=O)CN4CCN(c5ccccc5)CC4)CC3)nc2-c2ccc(OC)cc2)cc1 | 6.64 |
| CC(C)=CCc1cc2c(cc1O)OC[C@H]1c3cc4c(cc3O[C@@H]21)OCO4 | 57.4 |
| O=[N+]([O-])c1ccc(CI)cc1 | 7.21 |

Which value of TGI has been reported for Cn1c(Nc2ccc(C(F)(F)F)cc2)nc2cc(Oc3ccnc(-c4ncc(C(F)(F)F)[nH]4)c3)ccc21 in the records?
8.76

May I ask what TGI has been recorded for CC(C)=CCC/C(C)=C/CC/C(C)=C/CC(CO)N(C)CC/C=C(\C)CCC=C(C)C (stereo not drawn) ?
6.69

Entry Nc1n[nH]c(=O)c2c1c(I)cn2C1OC(CO)C(O)C1O (stereo not drawn) has what TGI?
2.29

* * *

System: UO-31 renal
Method: NCI tumour cell line growth inhibition, 48 h
Observable: TGI

| Compound | Measured on | TGI |
| --- | --- | --- |
| O=C(CC(C(=O)c1ccsc1)c1ccccc1)c1ccccc1 (stereo not given) | UO-31 renal | > 100 µM |
| CC1=C(/C=C/C(C)=C/C=C/C(C)=C/C(=O)OC2CC(n3cc(F)c(=O)[nH]c3=O)OC2CO)C(C)(C)CCC1 (stereo not given) | UO-31 renal | 14.9 µM |
| COc1ccc(-c2cc3ccccc3oc2=O)cc1OC | UO-31 renal | > 100 µM |

Form field - read-out: TGI; system: UO-31 renal; submitted item: O=C1CCC/C=C\C[C@H]2C=CC(=O)/C2=C/C[C@H](C/C=C\CC(F)(F)F)O1
0.624 µM

Find TGI (UO-31 renal) for the entry C=CCN1CCC(O)(c2cc(C(=O)OCC)[nH]c2-c2cc(C)no2)C1 (stereo not given)
> 100 µM

# returns recorded TGI (system: UO-31 renal) for CCOC(=O)C(CCN1CCC2(CC1)C(=O)N(C)CN2c1ccccc1)C(=O)OCC
> 100 µM

Entry Nc1ccn(C2OC(C(O)CO)C(O)C2O)c(=O)n1 (stereo not given) , system UO-31 renal: what TGI was measured?
> 100 µM

Provide value of TGI for this record tested with UO-31 renal: COc1ccc(/C(Cl)=C(\C=O)c2ccc(OC)cc2)cc1
> 100 µM

* * *

Each entry below carries its recorded TGI.
System: K-562 leukemia
Method: NCI tumour cell line growth inhibition, 48 h

| Molecule | TGI |
| --- | --- |
| CCCCCCCN=C(N)c1ccc(N2CCN(c3ccc(C(N)=NCCCCCCC)cc3)CC2)cc1 | > 9.41 µM |
| CCOC(=O)/C=C/c1ccc(C#Cc2ccccc2)cc1 | > 100 µM |

Entry C=COC(=O)N[C@H]1CCc2cc(OC)c(OC)c(OC)c2-c2ccc(SC)c(=O)cc21 has what TGI?
> 31.6 µM

Could you share which TGI value was measured for NCC(=O)Nc1ccc(S(=O)(=O)O)c2cc(S(=O)(=O)O)cc(S(=O)(=O)O)c12 ?
> 100 µM

Entry COC(C)(C)OCCN1CCN(CCN2C3=C(C=C(C(C)=O)C3)Sc3ccccc32)CC1 : reported TGI = ?
32.2 µM

Any idea what its TGI is? The molecule is [N-]=[N+]=CC(=O)OC1Cc2ccccc2C1
> 100 µM

Consider the molecule C[N+](C)(C)CC1CCC/C1=N\OC(=O)c1ccccc1 (stereo unspecified) and give its measured TGI.
> 100 µM

Sample COc1ccc(/C=C2\c3cc(OC)c(OC)cc3CCN2C(=O)c2ccccc2)cc1OC — what was its TGI?
> 100 µM

Data request, read-out TGI, for CC(=O)O[C@H]1CC[C@@]2(C)C(=CC[C@H]3[C@@H]4C/C(=C\c5ccc(N(C)C)cc5)[C@H](OC(C)=O)[C@@]4(C)CC[C@@H]32)C1
> 100 µM

# lookup: TGI of Cn1c2c(c3ccccc31)CCN1C(=O)CN(C(=O)C3CCCCC3)CC21 (stereo unspecified)
> 100 µM

I am curious: what TGI value has been reported for COC(=O)c1cc2c(s1)-c1nccc3c1c(nc1ccccc13)C2=O ?
> 100 µM

Recorded values, source PubChem BioAssay (NCI).
